read-out: Intercellular Adhesion Molecule 1 (ICAM1), ICAM1 (gene 3383); assay: BSK_KF3CT_ICAM1: BioMAP Diversity Plus: KF3CT Assay for Intercellular Adhesion Molecule 1 (ICAM1) Biomarker Activity (AID 2283067); conditions: primary human keratinocytes with fibroblasts; actives raise or lower the signal
Active and inactive are the calls of the source. Rule for the calls: active = hit-call score of the fitted dose curve at least 0.9, where 1 is the maximum; inactive = score below 0.9.
Possible outcomes: t for active, f for inactive

{"Compound": "CCN(CCO)S(=O)(=O)C(F)(F)C(F)(F)C(F)(F)C(F)(F)C(F)(F)C(F)(F)C(F)(F)C(F)(F)F", "Classification": "f"}
{"Compound": "O=C(O)CCC(F)(F)C(F)(F)C(F)(F)C(F)(F)C(F)(F)C(F)(F)C(F)(F)F", "Classification": "f"}
{"Compound": "Cc1cc(C)c(O)c(C(C)(C)C)c1", "Classification": "t"}
{"Compound": "CC(C)CCCC(C)CCO (centres undefined)", "Classification": "t"}
{"Compound": "O=C=Nc1cccc2c(N=C=O)cccc12", "Classification": "f"}
{"Compound": "NCC(F)(F)C(F)(F)C(F)(F)C(F)(F)C(F)(F)C(F)(F)F", "Classification": "f"}
{"Compound": "O=C(O)CCC(F)(F)C(F)(F)C(F)(F)F", "Classification": "f"}
{"Compound": "Brc1nc2ccccc2s1", "Classification": "f"}
{"Compound": "C=CC(=O)OCC(F)(F)C(F)(F)C(F)(F)C(F)(F)C(F)(F)C(F)(F)C(F)(F)C(F)F", "Classification": "f"}
{"Compound": "O=C(Cl)C(F)(F)C(F)(F)C(F)(F)C(F)(F)C(F)(F)C(F)(F)F", "Classification": "f"}
{"Compound": "CCOC(=O)CC(=O)C(F)(F)C(F)(F)F", "Classification": "f"}
{"Compound": "CN(C(=O)C(F)(F)C(F)(F)C(F)(F)F)[Si](C)(C)C", "Classification": "f"}
{"Compound": "NC(O)(C(F)(F)F)C(F)(F)F", "Classification": "f"}
{"Compound": "OCC(O)CC(F)(F)C(F)(F)C(F)(F)C(F)(F)F (centres undefined)", "Classification": "f"}
{"Compound": "CNS(=O)(=O)C(F)(F)C(F)(F)C(F)(F)C(F)(F)C(F)(F)C(F)(F)C(F)(F)C(F)(F)F", "Classification": "f"}
{"Compound": "NC(=O)C(F)(F)C(F)(F)C(F)(F)F", "Classification": "f"}
{"Compound": "O=C(O)C(F)(F)C(F)(F)C(F)(F)C(=O)O", "Classification": "f"}
{"Compound": "O=S(=O)(Cl)C(F)(F)C(F)(F)C(F)(F)C(F)(F)C(F)(F)C(F)(F)C(F)(F)C(F)(F)F", "Classification": "f"}
{"Compound": "O=C(O)C(F)(F)C(F)(F)C(F)(F)OC(F)(C(F)(F)F)C(F)(F)F", "Classification": "f"}
{"Compound": "Nc1cc([N+](=O)[O-])cc(Cl)c1O", "Classification": "f"}
{"Compound": "Cc1cnccn1", "Classification": "f"}
{"Compound": "CO[Si](C)(CCC(F)(F)C(F)(F)C(F)(F)C(F)(F)C(F)(F)C(F)(F)F)OC", "Classification": "f"}
{"Compound": "NC(=O)C(F)(F)C(F)(F)C(F)(F)C(F)(F)C(N)=O", "Classification": "f"}
{"Compound": "COC(F)(C(F)F)C(F)(F)F (centres undefined)", "Classification": "f"}

---

assay: ATG_VDRE_CIS: Attagene CIS-FACTORIAL HepG2 Assay for human Vitamin D Receptor Element (VDRE) (AID 2282968); conditions: HepG2 VDRE cis-reporter transcription, actives raise or lower the signal
Calls of active or inactive are those of the source. Rule for the calls: active = hit-call score of the fitted dose curve at least 0.9, where 1 is the maximum; inactive = score below 0.9.
Measured endpoint: AC50

{"Compound": "O=C(Cl)C(F)(F)C(F)(F)C(F)(F)C(F)(F)C(F)(F)C(F)(F)F", "Result": "inactive"}
{"Compound": "CCc1cccc(C)c1N(C(=O)C(=O)O)C(C)COC (stereo unspecified)", "Result": "inactive"}
{"Compound": "O=C(O)C(F)(F)OC(F)(F)C(F)(F)OC(F)(F)C(F)(F)OC(F)(F)F", "Result": "inactive"}
{"Compound": "Oc1ccc2c(c1)CCC2", "Result": "inactive"}
{"Compound": "Cc1ccc(S(=O)(=O)C(I)I)cc1", "Result": "9.01 µM (active)"}
{"Compound": "CCCC(=O)OCC(COC(=O)CCC)OC(=O)CCC", "Result": "inactive"}

---

read-out: Interleukin-1 alpha (IL1a), IL1A (gene 3552); experiment: BSK_BE3C_IL1a: BioMAP Diversity Plus: BE3C Assay for Interleukin-1 alpha (IL1a) Biomarker Activity (AID 2283016); conditions: primary human bronchial epithelial cells; actives raise or lower the signal
Calls of active or inactive are those of the source. Rule for the calls: active = hit-call score of the fitted dose curve at least 0.9, where 1 is the maximum; inactive = score below 0.9.
Possible outcomes: class 1 for active, class 0 for inactive

{"Structure as smiles": "OCC(F)(F)C(F)(F)C(F)(F)C(F)(F)C(F)(F)C(F)(F)CO", "Classification": "class 0"}
{"Structure as smiles": "CCOC(=O)CC(=O)C(F)(F)C(F)(F)F", "Classification": "class 0"}
{"Structure as smiles": "NCC(F)(F)C(F)(F)C(F)(F)C(F)(F)C(F)(F)C(F)(F)C(F)(F)C(F)(F)F", "Classification": "class 0"}
{"Structure as smiles": "O=C1C=CC(=O)N1c1ccc(Cc2ccc(N3C(=O)C=CC3=O)cc2)cc1", "Classification": "class 1"}
{"Structure as smiles": "O=C(O)C(F)(F)C(F)(F)C(F)(F)C(F)(F)C(F)(F)C(F)(F)C(F)F", "Classification": "class 0"}

---

read-out: Tumor necrosis factor (Homo sapiens) (UniProt P01375); experiment: BSK_BT_xTNFa: BioMAP Diversity Plus: BT Assay for Tumor necrosis factor alpha (TNF-alpha) Biomarker Activity (AID 2284230); conditions: primary human B cells with PBMC
Sequence (P01375 whole entry, looked up): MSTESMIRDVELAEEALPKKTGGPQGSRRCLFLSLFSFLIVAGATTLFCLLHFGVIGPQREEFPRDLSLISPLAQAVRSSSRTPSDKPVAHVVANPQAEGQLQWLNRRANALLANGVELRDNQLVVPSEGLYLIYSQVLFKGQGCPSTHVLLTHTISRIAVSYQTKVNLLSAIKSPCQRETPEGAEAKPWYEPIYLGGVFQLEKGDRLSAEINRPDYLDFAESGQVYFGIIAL
Active and inactive are the calls of the source. The calls were made as follows: active = hit-call score of the fitted dose curve at least 0.9, where 1 is the maximum; inactive = score below 0.9.
Possible outcomes: active, inactive

{"Molecule": "O=C(Cl)C(F)(F)C(F)(F)C(F)(F)C(F)(F)C(F)(F)C(F)(F)F", "Classification": "inactive"}
{"Molecule": "Nc1cc([N+](=O)[O-])cc(Cl)c1O", "Classification": "inactive"}
{"Molecule": "Cc1cc(C)c(O)c(C(C)(C)C)c1", "Classification": "inactive"}
{"Molecule": "NC(=O)C(F)(F)C(F)(F)C(F)(F)F", "Classification": "inactive"}
{"Molecule": "Cc1ccc(S(=O)(=O)C(I)I)cc1", "Classification": "active"}
{"Molecule": "O=C(Cl)C(F)(F)C(F)(F)C(F)(F)C(F)(F)C(F)(F)C(F)(F)C(F)(F)F", "Classification": "inactive"}
{"Molecule": "O=C1C=CC(=O)N1c1ccc(Cc2ccc(N3C(=O)C=CC3=O)cc2)cc1", "Classification": "active"}
{"Molecule": "CCN(CC)c1ccc(N=Nc2ccccc2)cc1", "Classification": "active"}
{"Molecule": "CC(C)CCCC(C)CCO (centres undefined)", "Classification": "inactive"}
{"Molecule": "Cc1cc(O)c(C(C)(C)C)cc1C(C)(C)C", "Classification": "active"}
{"Molecule": "NS(=O)(=O)C(F)(F)C(F)(F)C(F)(F)C(F)(F)C(F)(F)C(F)(F)F", "Classification": "inactive"}
{"Molecule": "O=C=NCc1cccc(CN=C=O)c1", "Classification": "inactive"}
{"Molecule": "C=C(C)C(=O)OCC(F)(F)C(F)(F)C(F)(F)C(F)F", "Classification": "inactive"}
{"Molecule": "CN(C(=O)C(F)(F)C(F)(F)C(F)(F)F)[Si](C)(C)C", "Classification": "inactive"}
{"Molecule": "Cc1ccc(O)c(-n2nc3ccccc3n2)c1", "Classification": "inactive"}
{"Molecule": "OC(O)C(F)(F)C(F)(F)F", "Classification": "inactive"}
{"Molecule": "O=C(O)CCC(F)(F)C(F)(F)C(F)(F)F", "Classification": "inactive"}
{"Molecule": "CCN(CC)c1ccc(C=O)cc1", "Classification": "inactive"}
{"Molecule": "CC1=CC2C3C=CC(C3)C2C1C (centres undefined)", "Classification": "inactive"}

---

read-out: Collagen IV, COL4A1 (gene 1282); assay: BSK_MyoF_CollagenIV: BioMAP Diversity Plus: MyoF Assay for Collagen IV Biomarker Activity (AID 2284247); settings: primary human lung fibroblasts
Active and inactive are the calls of the source. Rule for the calls: active = hit-call score of the fitted dose curve at least 0.9, where 1 is the maximum; inactive = score below 0.9.
Possible outcomes: active, inactive

{"Compound": "O=C(O)C(F)(F)C(F)(F)C(F)(F)OC(F)(C(F)(F)F)C(F)(F)F", "Classification": "inactive"}
{"Compound": "Cc1cnccn1", "Classification": "inactive"}
{"Compound": "NCC(F)(F)C(F)(F)C(F)(F)C(F)(F)C(F)(F)C(F)(F)C(F)(F)C(F)(F)F", "Classification": "inactive"}
{"Compound": "CCN(CCO)S(=O)(=O)C(F)(F)C(F)(F)C(F)(F)C(F)(F)C(F)(F)C(F)(F)C(F)(F)C(F)(F)F", "Classification": "inactive"}
{"Compound": "CC(C)(C)c1cc(CCC(=O)NCCCCCCNC(=O)CCc2cc(C(C)(C)C)c(O)c(C(C)(C)C)c2)cc(C(C)(C)C)c1O", "Classification": "inactive"}
{"Compound": "OCC(F)(F)C(F)(F)C(F)(F)CO", "Classification": "inactive"}
{"Compound": "C=CC(=O)OCC(F)(F)C(F)(F)C(F)(F)COC(=O)C=C", "Classification": "inactive"}
{"Compound": "Cc1cc(O)c(C(C)(C)C)cc1C(C)(C)C", "Classification": "active"}
{"Compound": "O=C(O)C(F)(F)C(F)(F)C(F)(F)C(=O)O", "Classification": "inactive"}
{"Compound": "OCCCCC(F)(F)C(F)(F)C(F)(F)C(F)(F)F", "Classification": "inactive"}
{"Compound": "FC(F)(F)C(F)(F)C(F)(F)C(F)(F)C(F)(F)C(F)(F)CC[Si](Cl)(Cl)Cl", "Classification": "inactive"}
{"Compound": "O=C(O)C(F)(F)OC(F)(F)C(F)(F)OC(F)(F)C(F)(F)OC(F)(F)F", "Classification": "inactive"}
{"Compound": "CCN(CC)c1ccc(N=Nc2ccccc2)cc1", "Classification": "active"}
{"Compound": "NC(=O)C(F)(F)C(F)(F)C(F)(F)C(F)F", "Classification": "inactive"}
{"Compound": "O=C1C=CC(=O)N1c1ccc(Cc2ccc(N3C(=O)C=CC3=O)cc2)cc1", "Classification": "active"}
{"Compound": "CCN(CC)c1ccc2c(c1)Oc1cc(N(CC)CC)ccc1C21OC(=O)c2ccccc21", "Classification": "inactive"}
{"Compound": "CC1=CC2C3C=CC(C3)C2C1C (configuration not stated)", "Classification": "inactive"}
{"Compound": "O=C(c1ccccc1)c1ccc(O)cc1O", "Classification": "inactive"}
{"Compound": "C=CC(=O)OCC(F)(F)C(F)(F)C(F)(F)C(F)(F)C(F)(F)C(F)(F)C(F)(F)C(F)F", "Classification": "inactive"}
{"Compound": "O=C(Cl)C(F)(F)C(F)(F)C(F)(F)C(F)(F)C(F)(F)C(F)(F)F", "Classification": "inactive"}
{"Compound": "Cc1ccc(S(=O)(=O)C(I)I)cc1", "Classification": "active"}
{"Compound": "O=C=Nc1cccc2c(N=C=O)cccc12", "Classification": "inactive"}
